Attribute: PBM binding z-score
tested on: PXR homodimer (NR concentration 270 nM); test: PBM binding z-score (relative to random genomic background probes); higher = stronger binding; sequences stand for … in GC…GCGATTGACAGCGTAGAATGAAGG
MEASUREMENT TYPE: PBM binding z-score

macromolecule_sequence=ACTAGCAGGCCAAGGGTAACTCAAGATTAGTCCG quantitative_readout=-0.127
macromolecule_sequence=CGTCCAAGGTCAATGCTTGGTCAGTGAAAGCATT quantitative_readout=0.527
macromolecule_sequence=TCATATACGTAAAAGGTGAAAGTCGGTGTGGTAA quantitative_readout=0.642
macromolecule_sequence=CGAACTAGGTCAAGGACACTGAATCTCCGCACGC quantitative_readout=0.0266
macromolecule_sequence=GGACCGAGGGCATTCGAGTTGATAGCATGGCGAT quantitative_readout=1.3

* * *

tested on: PPARg:RXRa IVT, anti-PPARg (NR concentration 270 nM, RXRa partner concentration 90 nM); assay: PBM binding z-score (relative to random genomic background probes); higher = stronger binding; sequences stand for … in GC…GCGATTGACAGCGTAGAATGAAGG
Attribute: PBM binding z-score
MEASUREMENT TYPE: PBM binding z-score

macromolecule_sequence=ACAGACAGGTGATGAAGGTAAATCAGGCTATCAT measurement_type="PBM binding z-score" quantitative_readout=0.544
macromolecule_sequence=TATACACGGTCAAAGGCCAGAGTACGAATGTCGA measurement_type="PBM binding z-score" quantitative_readout=2.39
macromolecule_sequence=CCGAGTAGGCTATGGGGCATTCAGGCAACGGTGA measurement_type="PBM binding z-score" quantitative_readout=0.867
macromolecule_sequence=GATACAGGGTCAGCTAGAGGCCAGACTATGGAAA measurement_type="PBM binding z-score" quantitative_readout=2.29
macromolecule_sequence=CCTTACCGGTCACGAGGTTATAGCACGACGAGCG measurement_type="PBM binding z-score" quantitative_readout=2.32
macromolecule_sequence=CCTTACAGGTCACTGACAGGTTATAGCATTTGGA measurement_type="PBM binding z-score" quantitative_readout=4.34
macromolecule_sequence=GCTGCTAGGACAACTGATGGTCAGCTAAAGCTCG measurement_type="PBM binding z-score" quantitative_readout=-0.573
macromolecule_sequence=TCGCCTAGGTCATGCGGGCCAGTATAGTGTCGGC measurement_type="PBM binding z-score" quantitative_readout=2.74
macromolecule_sequence=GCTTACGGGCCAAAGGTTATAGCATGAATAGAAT measurement_type="PBM binding z-score" quantitative_readout=3.69
macromolecule_sequence=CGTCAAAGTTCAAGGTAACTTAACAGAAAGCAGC measurement_type="PBM binding z-score" quantitative_readout=1.52
macromolecule_sequence=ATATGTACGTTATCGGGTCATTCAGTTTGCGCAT measurement_type="PBM binding z-score" quantitative_readout=2.37
macromolecule_sequence=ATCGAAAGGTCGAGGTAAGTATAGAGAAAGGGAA measurement_type="PBM binding z-score" quantitative_readout=1.66
macromolecule_sequence=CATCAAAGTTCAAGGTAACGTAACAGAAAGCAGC measurement_type="PBM binding z-score" quantitative_readout=1.84
macromolecule_sequence=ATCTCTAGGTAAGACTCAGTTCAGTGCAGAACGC measurement_type="PBM binding z-score" quantitative_readout=1.08
macromolecule_sequence=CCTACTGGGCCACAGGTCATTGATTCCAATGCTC measurement_type="PBM binding z-score" quantitative_readout=5.99
macromolecule_sequence=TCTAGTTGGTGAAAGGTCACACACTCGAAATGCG measurement_type="PBM binding z-score" quantitative_readout=5.86
macromolecule_sequence=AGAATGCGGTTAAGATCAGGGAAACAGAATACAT measurement_type="PBM binding z-score" quantitative_readout=-0.00811
macromolecule_sequence=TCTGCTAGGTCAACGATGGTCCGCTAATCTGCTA measurement_type="PBM binding z-score" quantitative_readout=4
macromolecule_sequence=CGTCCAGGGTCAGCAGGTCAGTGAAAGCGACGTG measurement_type="PBM binding z-score" quantitative_readout=3.07
macromolecule_sequence=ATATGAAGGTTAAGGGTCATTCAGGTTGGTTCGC measurement_type="PBM binding z-score" quantitative_readout=4.44
macromolecule_sequence=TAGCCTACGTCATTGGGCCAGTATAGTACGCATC measurement_type="PBM binding z-score" quantitative_readout=0.164
macromolecule_sequence=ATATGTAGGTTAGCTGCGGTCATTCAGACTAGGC measurement_type="PBM binding z-score" quantitative_readout=6.05
macromolecule_sequence=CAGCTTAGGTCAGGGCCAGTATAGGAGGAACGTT measurement_type="PBM binding z-score" quantitative_readout=0.782
macromolecule_sequence=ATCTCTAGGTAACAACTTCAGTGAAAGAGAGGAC measurement_type="PBM binding z-score" quantitative_readout=2.74
macromolecule_sequence=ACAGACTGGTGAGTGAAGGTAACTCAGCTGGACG measurement_type="PBM binding z-score" quantitative_readout=-0.409
macromolecule_sequence=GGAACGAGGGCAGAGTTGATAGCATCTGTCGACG measurement_type="PBM binding z-score" quantitative_readout=2.85
macromolecule_sequence=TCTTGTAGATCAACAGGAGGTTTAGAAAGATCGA measurement_type="PBM binding z-score" quantitative_readout=0.449
macromolecule_sequence=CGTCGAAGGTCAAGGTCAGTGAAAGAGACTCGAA measurement_type="PBM binding z-score" quantitative_readout=4.52
macromolecule_sequence=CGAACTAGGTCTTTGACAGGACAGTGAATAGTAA measurement_type="PBM binding z-score" quantitative_readout=3.63
macromolecule_sequence=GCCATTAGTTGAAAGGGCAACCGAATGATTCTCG measurement_type="PBM binding z-score" quantitative_readout=0.947
macromolecule_sequence=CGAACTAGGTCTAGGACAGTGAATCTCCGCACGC measurement_type="PBM binding z-score" quantitative_readout=1.58
macromolecule_sequence=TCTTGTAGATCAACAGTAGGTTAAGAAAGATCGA measurement_type="PBM binding z-score" quantitative_readout=1.72
macromolecule_sequence=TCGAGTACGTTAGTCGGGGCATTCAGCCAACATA measurement_type="PBM binding z-score" quantitative_readout=-0.44
macromolecule_sequence=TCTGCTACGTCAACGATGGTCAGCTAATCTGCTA measurement_type="PBM binding z-score" quantitative_readout=-0.0517
macromolecule_sequence=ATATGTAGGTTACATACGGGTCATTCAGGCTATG measurement_type="PBM binding z-score" quantitative_readout=7.06
macromolecule_sequence=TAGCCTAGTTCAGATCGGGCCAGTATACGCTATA measurement_type="PBM binding z-score" quantitative_readout=0.54
macromolecule_sequence=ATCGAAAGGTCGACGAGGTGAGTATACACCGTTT measurement_type="PBM binding z-score" quantitative_readout=1.82
macromolecule_sequence=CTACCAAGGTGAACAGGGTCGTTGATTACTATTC measurement_type="PBM binding z-score" quantitative_readout=2.88

Data origin: the supplement of paper PMC6555819
